Target: hPXR (Homo sapiens (Human), UniProt O75469)
Sequence (O75469 whole entry): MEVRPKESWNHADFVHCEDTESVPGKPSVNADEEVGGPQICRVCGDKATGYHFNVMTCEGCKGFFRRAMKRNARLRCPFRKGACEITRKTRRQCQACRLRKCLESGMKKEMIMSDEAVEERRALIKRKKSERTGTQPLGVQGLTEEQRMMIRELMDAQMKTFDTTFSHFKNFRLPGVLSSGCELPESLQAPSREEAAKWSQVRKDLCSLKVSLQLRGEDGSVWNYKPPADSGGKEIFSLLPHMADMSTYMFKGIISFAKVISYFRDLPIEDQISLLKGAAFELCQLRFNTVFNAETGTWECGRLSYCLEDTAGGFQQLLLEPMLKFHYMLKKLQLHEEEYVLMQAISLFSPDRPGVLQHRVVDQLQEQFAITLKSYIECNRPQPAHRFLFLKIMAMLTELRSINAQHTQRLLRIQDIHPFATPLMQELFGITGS
Assay: cell-based hPXR agonistic assay
assay.readout: EC50

Check out these entries, answers already filled in.
• COc1ccc(OC)c(-n2nnc(C(=O)Nc3cc(OCCCCCCCCCl)cc(C(C)(C)C)c3)c2C)c1 = > 30 µM
• CCC[C@H](CC)Oc1ccc(C(=O)N2CCN(C)CC2)cc1NC(=O)c1nnn(-c2cc(OC)ccc2OC)c1C = > 30 µM
• COc1ccc(-n2nnc(C(=O)Nc3cc(C)ccc3OC)c2C)cc1 = > 30 µM
• COc1ccc(OC)c(-n2nnc(C(=O)Nc3cc(C(C)(C)C)ccc3OCCCCI)c2C)c1 = > 30 µM
• COc1ccc(OC)c(-n2nnc(C(=O)Nc3cc(OC(=O)c4nnn(-c5cc(OC)ccc5OC)c4C)cc(C(C)(C)C)c3)c2C)c1 = > 30 µM

INPUT: GET /values?readout=EC50&item= `CCC[C@H](CC)Oc1ccc(C(=O)N2CCN(C(C)=O)CC2)cc1NC(=O)c1nnn(-c2cc(OC)ccc2OC)c1C`
OUTPUT: 0.013 µM

INPUT: Also CNc1cc(NC(=O)c2nnn(-c3cc(OC)ccc3OC)c2C)cc(C(C)(C)C)c1 [D2] ?
OUTPUT: > 30 µM

* * *

Target: hPXR (Homo sapiens (Human), UniProt O75469)
Experiment: hPXR binding assay
Conditions: read-out: Binding (IC50/μM); hPXR binding assay
Measured log10 of IC50, listed per entry for reference.
Note the log scale: values are log10 of IC50 expressed in µM.

The following compounds have reported results that may help.
• CCCCOc1ccc(C(C)(C)C)cc1NC(=O)c1nnn(-c2cccnc2)c1C = 0.88
• COc1ccc(C)cc1-n1nnc(C(=O)Nc2cc(N)cc(C(C)(C)C)c2)c1C = 0.75
• COc1ccc(OC)c(-n2nnc(C(=O)Nc3ccc(NC(C)=O)c(C(C)(C)C)c3)c2C)c1 = 0.26
• COc1ccc(OC)c(-n2nnc(C(=O)Nc3cc(C(C)(C)C)ccc3NC(C)=O)c2C)c1 = 0.51
• CCC[C@H](CC)Oc1ccc(C(C)(C)C)cc1NC(=O)c1nnn(-c2cc(OC)c(F)cc2OC)c1C = -1.70
• C#CCCCOc1cc(NC(=O)c2nnn(-c3cc(OC)ccc3OC)c2C)cc(C(C)(C)C)c1 = -1.62
• COc1ccc(OC)c(-n2nnc(C(=O)Nc3cc(C(C)(C)C)ccc3OCC(=O)OC(C)(C)C)c2C)c1 = -0.30

INPUT: // returns reported log10 of IC50 for input `COc1ccc(OC)c(-n2nnc(C(=O)Nc3cccc(N4CCCCC4)c3)c2C)c1`
OUTPUT: 0.97

* * *

Measured inhibition at 10 µM, listed per entry for reference.
Target: hPXR (Homo sapiens (Human), UniProt O75469)
Assay: hPXR binding assay
Conditions: read-out: Binding (% inhibition at 10 μM)
Numeric only. Scale: %

Example entries and their recorded answers appear below.
- CCCC(CC)Oc1ccc(C(C)(C)C)cc1NC(=O)c1nnn(-c2cc(C)ccc2OC)c1C (centres unmarked) [G10]: 94
- CCC[C@H](CC)Oc1ccccc1NC(=O)c1nnn(-c2cc(OC)ccc2OC)c1C [M3]: 77
- COc1ccc(OC)c(-n2nnc(C(=O)Nc3cc(C(C)(C)C)ccc3OCCN3CCOCC3)c2C)c1 [B15]: 68
- COc1ccc(OC)c(-n2nnc(C(=O)Nc3cc(C(C)(C)C)ccc3NC(C)=O)c2C)c1 [B38]: 60
- COCCOCCOCCOCCOc1cc(NC(=O)c2nnn(-c3cc(OC)ccc3OC)c2C)cc(C(C)(C)C)c1 [D27]: 70
- COc1ccc(C)cc1-n1nnc(C(=O)Nc2ccc(OC)c(C(C)(C)C)c2)c1C [G3]: 71
- COc1ccc(OC)c(-n2nnc(C(=O)Sc3ccc(NC(C)=O)cc3)c2C)c1 [K2]: 38
- CCCCOc1ccc(C(C)(C)C)cc1NC(=O)c1nnn(-c2cc(OC)ccc2C)c1C [H11]: 10

INPUT: Given the entry CCCCOc1cc(NC(=O)c2nnn(-c3cc(Cl)ccc3OC)c2C)cc(C(C)(C)C)c1 [F6] , report its measured inhibition at 10 µM.
OUTPUT: 61

INPUT: Same lookup for COc1ccc(OC)c(-n2nnc(C(=O)Nc3ccc(C)cc3)c2C)c1 [A2] , please.
OUTPUT: 22

INPUT: One more compound: CCC[C@H](CC)Oc1ccc(C(C)(C)C)cc1NC(=O)c1nnn(-c2cc(OC)c(F)cc2OC)c1C [M10]
OUTPUT: 92

INPUT: Would you mind doing COc1ccc(OC)c(-n2nnc(C(=O)Nc3cc(OCCCCCCCCI)cc(C(C)(C)C)c3)c2C)c1 [D21] as well?
OUTPUT: 59

meta.source: patent US20250282736A1
